Data origin: the supplement of paper PMC10567573

B1: TRIM55 (parent)
chain: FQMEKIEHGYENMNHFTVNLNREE

Variants of: B1
Assay: protein stability index of a GFP-peptide fusion (GPS, HEK-293T) (PSI 1-6); higher = more stable;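 further: lentivirally expressed fusions sorted by FACS into six bins by GFP to DsRed ratio, PSI derived from sequencing read proportions per bin multiplied by bin number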
Settings: c terminus: a fixed tail appended
Rule: criterion met for protein stability index not less than 3, criterion not met for anything less.

Answered cases to consult:
FQMEKIEHGYENMNDFTVNLNREE
criterion met
FQMEKIEHGYENMNHFTVNLNREC
criterion not met
FQMEKIEHGYENMRHFTVNLNREE
criterion not met
FQMEKNEHGYENMNHFTVNLNREE
criterion not met
FQMEKIEHGAENMNHFTVNLNREE
criterion met
GQMEKIEHGYENMNHFTVNLNREE
criterion met
FQMEKIEHGYENMNHFTVNLNREV
criterion not met
FQMEKIEHGYENGNHFTVNLNREE
criterion met
FQMEKIEHGYENPNHFTVNLNREE
criterion met
FQMEKIEHGYELMNHFTVNLNREE
criterion not met

Request: Check this variant for protein stability index at or above 3: FQMEKIEHGYENMNTFTVNLNREE
Result: criterion not met

Request: Exam item: decide whether the reported protein stability index for FQMEKIEHGYENMNHFTVNLNREG is at least 3.
Result: criterion not met

Request: Is reported protein stability index greater than or equal to 3 here: FQMEKIEHGYENMNHVTVNLNREE
Result: criterion met

Request: Quick check: does FQMEKIEHGYENMNHFLVNLNREE have protein stability index greater than or equal to 3?
Result: criterion not met

Request: Determine whether measured protein stability index meets or exceeds 3 for FQAEKIEHGYENMNHFTVNLNREE
Result: criterion not met

Request: Check this variant for protein stability index at or above 3: FQMEKIEHGYENMNHFTVWLNREE
Result: criterion not met

Request: Form field: protein stability index at least 3? Entry: FQMEKIEHGYENMNHFTVNLIREE
Result: criterion not met

Request: Confirm if protein stability index reported for the variant FQMEKIEHGYENMNHFTVALNREE is 3 or above.
Result: criterion met

Request: Check this variant for protein stability index at or above 3: FQMEKIEHGYENMTHFTVNLNREE
Result: criterion not met

Request: Threshold query (protein stability index >= 3) on FQMEKIHHGYENMNHFTVNLNREE
Result: criterion not met
